test: log P by HPLC on reversed-phase column (C 18), EEC Directive 79/831 Annex V.A8; assay type: physicochemical; conditions: reversed-phase HPLC column (C 18), pH 2.7, LC-MS acidic range, pH 2.7, 0.1% formic acid/acetonitrile, 55° C.; read-out: log P (acidic) / log P (HCOOH)
PROPERTY: chromatographic logP

[
  {
    "MOLECULE": "CC(C)ONC(=O)c1cc(-c2ccc(OC(F)(F)F)cc2)cc(NC(=O)C2CC2)n1 [Example I-237]",
    "chromatographic logP": 3.5
  },
  {
    "MOLECULE": "N#Cc1cc(-c2ccc(OC(F)(F)F)cc2)cc(NC(=O)C2CC2)n1 [XXIX-1]",
    "chromatographic logP": 3.85
  },
  {
    "MOLECULE": "N#Cc1ccc(CNC(=O)c2cc(-c3ccc(SC(F)(F)C(F)F)cc3)cc(NC(=O)C3CC3)n2)cc1 [Example I-178]",
    "chromatographic logP": 3.81
  },
  {
    "MOLECULE": "COC(=O)N(Cc1ccc(C#N)cc1)C(=O)c1cc(-c2ccc(OC(F)(F)F)cc2)cc(NC(=O)C2CC2)n1 [Example I-231]",
    "chromatographic logP": 4.41
  }
]

----------
Examples of compounds with documented efficacy (caterpillars killed) follow.
system: Spodoptera frugiperda; assay: Spodoptera frugiperda spray test; assay type: in vivo; conditions: application rate 500 g/ha, after 7 days, maize leaf discs
Numeric answer only, unit % assumed.

Some entries whose results are on file:
[
  {
    "COMPOUND": "CC(NC(=O)c1cc(-c2ccc(C(F)(F)F)cc2)cc(N(C(=O)C2CC2)C(=O)C2CC2)n1)c1ccc(C#N)cc1 (stereo not drawn) [Example I-039]",
    "efficacy (caterpillars killed), %": 100
  },
  {
    "COMPOUND": "N#Cc1ccc(NC(=O)c2cc(-c3ccc(C(F)(F)F)cc3)cc(NC(=O)C3CC3)n2)cc1 [Example I-019]",
    "efficacy (caterpillars killed), %": 100
  },
  {
    "COMPOUND": "Cc1cc(OC(F)(F)F)ccc1-c1cc(NC(=O)C2CC2)nc(C(=O)NCc2ccc(C#N)cc2)c1 [Example I-099]",
    "efficacy (caterpillars killed), %": 100
  },
  {
    "COMPOUND": "N#Cc1ccc(CNC(=O)c2cc(-c3ccc(OC(F)(F)F)cc3F)cc(NC(=O)C3CC3)n2)cc1 [Example I-124]",
    "efficacy (caterpillars killed), %": 100
  },
  {
    "COMPOUND": "O=C(NCc1ccc(N2CCCC2=O)cc1)c1cc(-c2ccc(OC(F)(F)F)cc2)cc(NC(=O)C2CC2)n1 [Example I-259]",
    "efficacy (caterpillars killed), %": 100
  }
]

What does the record list as efficacy (caterpillars killed) for N#Cc1ccc(CNC(=O)c2cc(-c3ccc(C(F)(F)F)c(F)c3)cc(NC(=O)C3CC3)n2)cc1 [Example I-224] ?
100

What does the record list as efficacy (caterpillars killed) for O=C(NCc1cc(F)c(Cl)cc1Cl)c1cc(-c2ccc(OC(F)(F)F)cc2)cc(NC(=O)C2CC2)n1 [Example I-063] ?
100

What does the record list as efficacy (caterpillars killed) for CC(C)C(=O)Nc1cc(-c2ccc(OC(F)(F)F)cc2)cc(C(=O)NC2(C#N)CC2)n1 [Example I-075] ?
100

What does the record list as efficacy (caterpillars killed) for O=C(NC1COC1)c1cc(-c2ccc(OC(F)(F)F)cc2)cc(NC(=O)C2CC2)n1 [Example I-117] ?
100

----------
assay: log P by HPLC on reversed-phase column (C 18), EEC Directive 79/831 Annex V.A8; format: physicochemical; settings: log P, neutral range; HPLC on reversed-phase column (C 18), 55° C.
PROPERTY: LOGP_NEUTRAL

[
  {
    "MOLECULE": "N#CC1CCC(CNC(=O)c2cc(-c3ccc(OC(F)(F)F)cc3)cc(NC(=O)C3CC3)n2)CC1 (centres unmarked) [Example I-198]",
    "RECORDED VALUE": 3.75
  },
  {
    "MOLECULE": "CC(C)(C#N)NC(=O)c1cc(-c2ccc(OC(F)(F)F)cc2)cc(NC(=O)C2CC2)n1 [Example I-108]",
    "RECORDED VALUE": 3.64
  },
  {
    "MOLECULE": "O=C(NC1CCC1)c1cc(-c2ccc(C(F)(F)F)cc2)cc(NC(=O)C2CC2)n1 [Example I-033]",
    "RECORDED VALUE": 3.80
  },
  {
    "MOLECULE": "N#Cc1ccc(CNC(=O)c2cc(-c3ccc(C(F)(F)F)cc3)cc(NC(=O)C3CCC3)n2)cc1 [Example I-045]",
    "RECORDED VALUE": 3.99
  },
  {
    "MOLECULE": "O=C(NCc1ccc(C(F)(F)F)cc1)c1cc(-c2ccc(C(F)(F)F)cc2)cc(NC(=O)C2CC2)n1 [Example I-027]",
    "RECORDED VALUE": 4.50
  },
  {
    "MOLECULE": "O=C(NC1CSC1)c1cc(-c2ccc(OC(F)(F)F)cc2)cc(NC(=O)C2CC2)n1 [Example I-162]",
    "RECORDED VALUE": 3.93
  },
  {
    "MOLECULE": "O=C(NC1COC1)c1cc(-c2ccc(OC(F)(F)F)cc2)cc(NC(=O)C2CC2)n1 [Example I-117]",
    "RECORDED VALUE": 2.95
  },
  {
    "MOLECULE": "CON(C)C(=O)c1cc(-c2ccc(OC(F)(F)F)cc2)cc(NC(=O)C2CC2)n1 [Example I-183]",
    "RECORDED VALUE": 3.18
  },
  {
    "MOLECULE": "N#Cc1ccc(CNC(=O)c2cc(-c3ccc(C(F)(F)F)cc3)cc(NC(=O)C3CC3)n2)cn1 [Example I-042]",
    "RECORDED VALUE": 3.26
  },
  {
    "MOLECULE": "N#Cc1ccc(CNC(=O)c2cc(-c3ccc(OC(F)(F)F)cc3F)cc(NC(=O)C3CC3)n2)cc1 [Example I-124]",
    "RECORDED VALUE": 3.78
  },
  {
    "MOLECULE": "CN(C(=O)C1CC1)c1cc(-c2ccc(OC(F)(F)F)cc2)cc(C(=O)NCc2ccc(C#N)cc2)n1 [Example I-215]",
    "RECORDED VALUE": 3.84
  },
  {
    "MOLECULE": "N#Cc1ccc(CNC(=O)c2cc(-c3ncc(C(F)(F)F)cc3Cl)cc(NC(=O)C3CC3)n2)cc1 [Example I-119]",
    "RECORDED VALUE": 3.35
  },
  {
    "MOLECULE": "Cn1ncc2cccc(CNC(=O)c3cc(-c4ccc(OC(F)(F)F)cc4)cc(NC(=O)C4CC4)n3)c21 [Example I-092]",
    "RECORDED VALUE": 3.67
  },
  {
    "MOLECULE": "C[C@H](NC(=O)c1cc(-c2ccc(OC(F)(F)F)cc2)cc(NC(=O)C2CC2)n1)c1ccc(C(F)(F)F)cc1 [Example I-061]",
    "RECORDED VALUE": 4.89
  },
  {
    "MOLECULE": "N#Cc1ccc(CNC(=O)c2cc(-c3ccc(OC(F)(F)C(F)Cl)cc3)cc(NC(=O)C3CC3)n2)cc1 (centres unmarked) [Example I-194]",
    "RECORDED VALUE": 3.74
  },
  {
    "MOLECULE": "CCCCNC(=O)c1cc(-c2ccc(C(F)(F)F)cc2)cc(NC(=O)C2CC2)n1 [Example I-037]",
    "RECORDED VALUE": 3.98
  },
  {
    "MOLECULE": "O=C(NCc1ccc(Cl)nc1)c1cc(-c2ccc(Cl)cc2)cc(NC(=O)C2CC2)n1 [Example I-024]",
    "RECORDED VALUE": 3.47
  },
  {
    "MOLECULE": "N#Cc1ccc(CNC(=O)c2cc(-c3ccc(C(F)(F)C(F)(F)F)c(F)c3)cc(NC(=O)C3CC3)n2)cc1 [Example I-149]",
    "RECORDED VALUE": 4.14
  },
  {
    "MOLECULE": "O=C(NCC1CCC(C(F)(F)F)CC1)c1cc(-c2ccc(OC(F)(F)F)cc2)cc(NC(=O)C2CC2)n1 (centres unmarked) [Example I-156]",
    "RECORDED VALUE": 4.85
  },
  {
    "MOLECULE": "N#Cc1cc(F)c(CNC(=O)c2cc(-c3ccc(OC(F)(F)F)cc3)cc(NC(=O)C3CC3)n2)cc1F [Example I-086]",
    "RECORDED VALUE": 4.02
  },
  {
    "MOLECULE": "O=C(NC1CC1)c1cc(-c2ccc(SC(F)(F)F)cc2)cc(NC(=O)C2CC2)n1 [Example I-105]",
    "RECORDED VALUE": 3.71
  },
  {
    "MOLECULE": "N#Cc1ccc(CNC(=O)c2cc(-c3ccc(OC(F)(F)F)cc3Cl)cc(NC(=O)C3CC3)n2)cc1 [Example I-122]",
    "RECORDED VALUE": 3.99
  },
  {
    "MOLECULE": "O=C(NC1CC1)c1cc(-c2ccc(OC(F)F)cc2)cc(NC(=O)C2CC2)n1 [Example I-030]",
    "RECORDED VALUE": 2.83
  },
  {
    "MOLECULE": "O=C(NC1CC1)c1cc(-c2ccc(S(=O)(=O)C(F)(F)F)cc2)cc(NC(=O)C2CC2)n1 [Example I-103]",
    "RECORDED VALUE": 3.17
  },
  {
    "MOLECULE": "CC1(NC(=O)c2cc(-c3ccc(OC(F)(F)F)cc3)cc(NC(=O)C3CC3)n2)CSC1 [Example I-163]",
    "RECORDED VALUE": 4.24
  },
  {
    "MOLECULE": "N#Cc1ccc(CNC(=O)c2cc(-c3ccc(SC(F)(F)F)cc3)cc(NC(=O)C3CC3)n2)cc1 [Example I-052]",
    "RECORDED VALUE": 4.01
  }
]

All figures here come from patent US20190053492A1.
